target: erythrocytes infected with P. falciparum field isolate 10975; assay: flow cytometry, staining of IEs
Listing: % parasite recognition of selected binders

binder	% parasite recognition, %
MGC28 (antibody) VH: EVQLVESGGGLVQPGGSLRLSCEASGFTFSSYWMTWVRQAPGKGLEWVANINQDGSERYYVDSVKGRFTISRDTVKNSLYLQMNNLRAEDTAVYYCARQRFCSDGSLFHGEDLPRPTISAETGTVISLGSHVTFVCRGPLGVQTFRLERESRSRYSETEDVSQVGPSESEARFRIDSVSEGNAGLYRCIYYKPPKWSEQSDYLELRVKGEDVTWALLTYCGGDRDESDYYMDVWGKGTTVTVSS VL: QTVVTQEPSLTVSPGGTVTLTCASSTGSVTSGSFPNWFQQTPGQAPRSLIYSTTKKHSWTPARFSGSLLGGKAALTVSDTQPEDEAEYYCLLYCGGGQPWVFGGGTKLTVL	12.3
MGD23 (antibody) VH: QVQLQESGPGLVKPSGTLSLTCSVSGGSISSNKWWSWVRQSPGKGLEWIGEVYQTGITNYNPSLKGRVTMSVDKSKNQFSLRLTSVTAADTAVYYCATISQLRPQGDTEDLPRPSLSAEPGTVIPLGSHVTFVCRGPAGVETFRLERESRFTYNDTEDVSQASPSESEARFRIDSVSEGNAGPYRCLYYKARKWSDQSDYLELLVKGADVTWALPQSQLAPRACPQGELRISTDVFSMNVWGNGTTVTVSS VL: AVRVTQSPTSLSASTGDRVTITCRTSQYVGNYLDWYQQKPGKAPKLLIHGVSTLQNGVPSRFSGSASGTDFTLNITCLQSEDSATYYCQQYYTSPPDFGQGTRLEIK	3.4
MGD56 (antibody) VH: QVQLQESGPGLVKPSGTLSLTCAVSGGSITTNNWWSWVRQTPGKGLEWIGEIFRSGTTNYNPSLKSRVAISLDKSKNQFSLKLTSVTAADTAVYYCATASPFKSQRDTKDLPRPSLSAEPGTVIPLGSHVTFVCRGPVGVQTFRLQRESRSLYNDTEDVSHPSPSESEARFRIDSVSEGNAGPYRCVYYKSSKWSEESDCLELLVKTEDVTWARPQPQLDPRACPRGDLRISTDVYYMDVWGKGTTVTVSS VL: AIRMTQSPSSLSASTGDRVTITCRASQAITSYLAWYRQKPGKAPDLLIYNASTLQSGVPSRFSASGSGTDFALTITGLQSEDFVIYFCQHYYTYPPAFGQGTRLEIK	6.7
MGD39 (antibody) VH: QVRLQESGPGLVKPSGTLSLTCTVSGGSISAYRWWSWVRQAPGKGLEWIGQVYNDGNTNYNPSLKGRVAMSVDKSKNRFSLRLASVTAADTAVYYCATISPLRPQSDTDDLPRPSISAEPGTVIPLGSHVTFVCRGPIGVQTFRLERERRSLYSDTEDVSQVSPFASEARFRIDSVSEGNAGPYRCIYYKDRKWSDQSDYLELLVKGEDVTWALPQSQLAPRACPQEELNISTDIFSMNVWGKGTTVTVSS VL: AIRMTQSPASLSASIGDRVTITCRTSHDVGNYLDWYQQKPGKAPKLLIHGASTLQTGVPSRFSGSGAGTDFTLNITCLQSGDFAMYYCQQYYSSPPGFGQGTRLEIK	14.1
MGC7 (antibody) VH: EVQLVESGGDLVQPGGSLRLSCAASGFTFRNYWMSWVRQTPGKGLEWVANIRQDGSEKYYVDSVKGRFTISRDNAKNLLYLQMNSLRAEDTAVYYCVRDKFCSDENHMHVADDLPRPSISPEPGTVIPLGSHVTFVCRGPVGVQTFRLEKDRRSTYNDTEDVSQPSPSESEARFRIDSVTEGNAGLYRCVYYKPPKWSDQSDFLELLVKGEDVTWALFPHCGADGEDSDYYMDVWGKGTTVTVSS VL: DIQMTQSPSSVSASVGDRVTITCRASQGLSTWLAWYQQKPGKAPKILIYAASSLQSGVPSRFSGSGSGTDFTLTISSLQPEDFATYYCQQANSFPLTFGGGTKVEIK	0.7
